Tested on: UO-31 renal
Test: NCI tumour cell line growth inhibition, 48 h
Where a SMILES comes first, the peptide text is derived from it. The star is where a group is joined. Fmoc = O=C(OCC1c2ccccc2-c2ccccc21)*; Boc = CC(C)(C)OC(=O)*

| COMPOUND | TGI |
| --- | --- |
| C=C(C)COC(=O)COCC(=O)OCC(=C)C | > 100 µM |
| CC(C)(C)OC(=O)NCCCCC(NC(=O)C(Cc1c[nH]c2ccccc12)NC(=O)OCC1c2ccccc2-c2ccccc21)C(=O)O (stereo not drawn) (Fmoc-Trp-Lys(Boc)-OH; configuration not given here) | > 100 µM |
| COc1cc(C2S/C(=C/c3ccccc3)C(=O)N2c2ccccn2)cc(OC)c1OC (stereo not drawn) | 28.8 µM |
